Values compiled from ChEMBL document CHEMBL1201862.

Molecular target: Leucine aminopeptidase (Plasmodium falciparum 3D7)
Sequence (Q8IL11 whole entry): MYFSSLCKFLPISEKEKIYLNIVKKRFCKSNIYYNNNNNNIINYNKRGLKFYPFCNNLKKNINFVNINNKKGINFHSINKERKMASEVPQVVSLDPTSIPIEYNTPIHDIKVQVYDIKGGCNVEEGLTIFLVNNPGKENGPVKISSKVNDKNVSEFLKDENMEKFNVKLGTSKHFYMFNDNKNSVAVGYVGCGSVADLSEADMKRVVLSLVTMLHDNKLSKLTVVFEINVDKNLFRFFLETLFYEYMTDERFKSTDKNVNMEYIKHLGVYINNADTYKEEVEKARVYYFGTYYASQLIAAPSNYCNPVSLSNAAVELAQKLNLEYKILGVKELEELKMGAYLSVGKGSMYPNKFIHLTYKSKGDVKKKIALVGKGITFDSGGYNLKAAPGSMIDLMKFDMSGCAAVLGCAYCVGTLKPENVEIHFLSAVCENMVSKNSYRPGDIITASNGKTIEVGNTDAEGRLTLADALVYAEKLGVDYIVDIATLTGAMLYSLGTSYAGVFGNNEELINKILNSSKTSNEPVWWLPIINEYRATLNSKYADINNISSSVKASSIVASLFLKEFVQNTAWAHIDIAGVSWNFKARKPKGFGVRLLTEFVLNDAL
Assay: P. falciparum M17LAP inhibitors, primary screen, biochemical, fluorogenic H-Leu-NHMec substrate, 1536-well (AID 1619)
Assay type: functional
Calls of active or inactive are those of the source.
ASSAY_METRIC: IC50

Would you please look over these solved cases?
| MOLECULE | RESULT |
| --- | --- |
| CC1=C(C)CC(C(=O)Nc2nc(-c3ccc(C)cc3C)c(C)s2)C(C(=O)O)C1 (stereo unspecified) | 3.71 µM (active) |
| Cc1ccc(Nc2nnc(SC(C)C(=O)Nc3c(C)n(C)n(-c4ccccc4)c3=O)s2)cc1 (stereo unspecified) | 3.86 µM (active) |
| Cc1cccc(C)c1NC(=O)CSCC(=O)c1ccc(O)c(O)c1 | 20.9 µM (active) |
| O=C(Nc1ccc(Cl)cc1)Nc1cccc(C(=O)O)c1 | < 1 µM (active) |

Fill in IC50 for each of the 2 molecules listed.
1. Cc1cc(C(=O)OCC(=O)N2C(C)CCCC2C)c(C)o1 (stereo unspecified)
2. C=CCN1C=CC(=CC=C(C#N)C#N)C=C1

Marked response:
1: 14.3 µM (active); 2: 72.2 µM (active)

###

test: reduction of Shn3 3'UTR-driven luciferase in osteoblasts – cell-based, Clone20 osteoblasts, firefly luciferase, cherry-picked, dose response (AID 624132); format: functional;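 note: firefly luciferase luminescence from reporter carrying the Shn3 3'UTR in osteoblasts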
Active and inactive are the calls of the source.
Record form. Attribute: AC50. Fill in for each entry.

| CHEMICAL_STRING | AC50 |
| --- | --- |
| Cc1cc(NC(=O)CCCS(=O)(=O)c2nc(-c3cccs3)cc(C(F)(F)F)n2)no1 | 1.73 µM (active) |
| O=S(=O)(c1cccs1)N1CCN(CCOc2ccc(Cl)cc2)CC1 | 13.8 µM (active) |
| COc1ccc(CN(C(=O)CSc2nnc(-c3ccc(F)cc3)o2)c2ccc(F)cc2)cc1 | 43.4 µM (active) |

For the next question, use this molecule.
Exam item: Entry Cc1sc2ncnc(NCC(C)(C)N3CCOCC3)c2c1C : reported AC50 = ?
Marked response: 1.36 µM (active)
